test: Displacement of [3H]RO15-1788 from benzodiazepine receptor in bovine brain membranes; assay type: cell membranes, Bos taurus, Membrane
recorded.metric: Ki

May I ask what Ki has been recorded for COc1ccc(-c2cnn3c(=O)c(-c4ccsc4)c[nH]c23)cc1 ?
42.2 nM

Try O=c1c(-c2ccsc2)c[nH]c2c(-c3ccsc3)cnn12 next.
16.3 nM

* * *

experiment: Half life in Beagle dog at 5 mg/kg, po administered as single dose by LC/MS/MS analysis; type: ADME, organism-based, Canis lupus familiaris; settings: in vivo
recorded.metric: half-life
Don't forget the unit after the number, please.

Bench note: what half-life did CCC(CC)Nc1cc(C)nc2c(-c3ccc(OC)cc3C)c(C)nn12 show?
45.1 h

These data points were gathered from ChEMBL document CHEMBL3994587.
